What Population Membrane Permeable-Phenotype (%) was measured for each of the following?
System: Fibroblast
assay name: Multiplex assay against human fibroblast
Format: toxicity, cell-based
setup conditions: 24 h, 10 µM, compound concentration 10 uM, replicate 2
Numbers only; they are read as %.

`CC(C)(O)CNc1ncc(-c2ccnc(Nc3ccnc(Cl)c3)n2)c(CC2CC2)n1` has a reported Population Membrane Permeable-Phenotype (%) of 47

`CN(C)C(=O)/C(C#N)=C/c1ccc(-c2nc3cnc4[nH]ccc4c3n2C2CCCCC2)o1` has a reported Population Membrane Permeable-Phenotype (%) of 12

`COc1cc(-n2cnc3cc(-c4ccc(Cl)cc4)sc3c2=O)ccc1OCCN1CCCC1` has a reported Population Membrane Permeable-Phenotype (%) of 42

`c1cn2cc(-c3ccc4cn[nH]c4c3)nc(Nc3ccc(N4CCOCC4)cc3)c2n1` has a reported Population Membrane Permeable-Phenotype (%) of 8

`CC[C@H](C)C(=O)O[C@H]1C[C@@H](C)C=C2C=C[C@H](C)[C@H](CC[C@@H]3C[C@@H](O)CC(=O)O3)[C@H]21` has a reported Population Membrane Permeable-Phenotype (%) of 8

C=CC(=O)Nc1cc2c(Nc3ccc(F)c(Cl)c3)ncnc2cc1OCCCN1CCOCC1.Cl.Cl [CANERTINIB DIHYDROCHLORIDE] has a reported Population Membrane Permeable-Phenotype (%) of 5

`COc1ncc(-c2ccc3nccc(-c4ccnnc4)c3c2)cc1NS(=O)(=O)c1ccc(F)cc1F` has a reported Population Membrane Permeable-Phenotype (%) of 35

`CN(C)CC#Cc1ccc(OCCCc2sc(N3CCc4cccc(C(=O)Nc5nc6ccccc6s5)c4C3)nc2C(=O)O)c(F)c1` has a reported Population Membrane Permeable-Phenotype (%) of 20

`Cc1nc(-c2cn3c(n2)-c2ccc(-c4cnn(C(C)(C)C(N)=O)c4)cc2OCC3)n(C(C)C)n1` has a reported Population Membrane Permeable-Phenotype (%) of 10

`Cc1csc2c(N[C@@H](C)CN3CCN(S(=O)(=O)c4ccc(Cl)c(Cl)c4)CC3)ncnc12` has a reported Population Membrane Permeable-Phenotype (%) of 80

###

Test system: Fibroblast
assay name: Multiplex assay against human fibroblast
Type: toxicity, cell-based
setup conditions: 24 h, 10 µM, compound concentration 10 uM, replicate 2
What Population Fragmented Nuclei (%) was measured for each of the following?
Numbers only; they are read as %.

Cl.N#Cc1ccc2[nH]cc(CCCCN3CCN(c4ccc5oc(C(N)=O)cc5c4)CC3)c2c1 [VILAZODONE HYDROCHLORIDE] has a reported Population Fragmented Nuclei (%) of 31

`Cc1nc(-c2ccc(-c3ccc(C(=O)N4CCc5cc6c(cc54)C4(CCN(C)CC4)CO6)cc3)c(C)c2)no1` has a reported Population Fragmented Nuclei (%) of 16

COc1cccc([C@@H](C)NCCCc2ccccc2Cl)c1.Cl [TECALCET HYDROCHLORIDE] has a reported Population Fragmented Nuclei (%) of 8

`CC[C@H](C)C(=O)O[C@H]1C[C@@H](C)C=C2C=C[C@H](C)[C@H](CC[C@@H]3C[C@@H](O)CC(=O)O3)[C@H]21` has a reported Population Fragmented Nuclei (%) of 8

`Cn1cncc1[C@@](O)(COc1ccc(C#N)cc1-c1ccc(OC(F)(F)F)cc1)c1ccc(C#N)cc1` has a reported Population Fragmented Nuclei (%) of 50

`Cc1[nH]c(/C=C2\C(=O)Nc3ccc(S(=O)(=O)N(C)c4cccc(Cl)c4)cc32)c(C)c1C(=O)N1CCN(C)CC1` has a reported Population Fragmented Nuclei (%) of 17

`CN1CCN(CCOc2cc(OC3CCOCC3)c3c(Nc4c(Cl)ccc5c4OCO5)ncnc3c2)CC1` has a reported Population Fragmented Nuclei (%) of 11

###

Tested on: U2OS
assay name: Multiplex assay against U2OS
Format: toxicity, cell-based
setup conditions: human, 24 h, 10 µM, compound concentration 10 uM, replicate 2
What Population Fragmented Nuclei (%) was measured for each of the following?
Numbers only; they are read as %.

`Cc1[nH]c(/C=C2\C(=O)Nc3ccc(S(=O)(=O)N(C)c4cccc(Cl)c4)cc32)c(C)c1C(=O)N1CCN(C)CC1` has a reported Population Fragmented Nuclei (%) of 17

CN1CCC[C@@H]1CCO[C@](C)(c1ccccc1)c1ccc(Cl)cc1.O=C(O)/C=C/C(=O)O [CLEMASTINE FUMARATE] has a reported Population Fragmented Nuclei (%) of 21

`COc1cc2nccc(Oc3ccc(NC(=O)Nc4cc(C)on4)c(Cl)c3)c2cc1OC.O` has a reported Population Fragmented Nuclei (%) of 16

C=CC(=O)Nc1cc2c(Nc3ccc(F)c(Cl)c3)ncnc2cc1OCCCN1CCOCC1.Cl.Cl [CANERTINIB DIHYDROCHLORIDE] has a reported Population Fragmented Nuclei (%) of 9

`Cc1c(-c2ccc(O)cc2)n(Cc2ccc(OCCN3CCCCCC3)cc2)c2ccc(O)cc12` has a reported Population Fragmented Nuclei (%) of 22

`CCN(CC)CCCCNc1ncc2cc(-c3cc(OC)cc(OC)c3)c(NC(=O)NC(C)(C)C)nc2n1` has a reported Population Fragmented Nuclei (%) of 26

`CNc1nc(NCc2ccc(NS(C)(=O)=O)cc2Cl)cc(-c2ccccn2)n1` has a reported Population Fragmented Nuclei (%) of 20

`CN(C)C(=O)/C(C#N)=C/c1ccc(-c2nc3cnc4[nH]ccc4c3n2C2CCCCC2)o1` has a reported Population Fragmented Nuclei (%) of 28

`OC1(c2ccc(Cl)cc2)CCN(Cc2c[nH]c3ccccc23)CC1` has a reported Population Fragmented Nuclei (%) of 21

###

Test system: Fibroblast
assay name: Incucyte cell viability with human fibroblast; also: filed as whole numbers so only -1 and 0 and 1 occur
Assay type: toxicity, cell-based
setup conditions: 18 h, 10 µM, compound concentration 10 uM, replicate number 1, timepoint 18 hours
reported property: Growth Rate
Number, no unit, nothing else.

CN1CCCC(n2nc(Cc3ccc(Cl)cc3)c3ccccc3c2=O)CC1.Cl (stereo not drawn) [AZELASTINE HYDROCHLORIDE] has a reported Growth Rate of 1

`c1cn2cc(-c3ccc4cn[nH]c4c3)nc(Nc3ccc(N4CCOCC4)cc3)c2n1` has a reported Growth Rate of 0

COc1ccc(C2(O)OC(=O)C(c3ccc4c(c3)OCO4)=C2Cc2cc(OC)c(OC)c(OC)c2)cc1 (stereo not drawn) has a reported Growth Rate of 0

C[C@@H](NCCCc1cccc(C(F)(F)F)c1)c1cccc2ccccc12.Cl [CINACALCET HYDROCHLORIDE] has a reported Growth Rate of 0

`CCCCN1CCC(COC(=O)c2cc(Cl)c(N)c3c2OCCO3)CC1.Cl` has a reported Growth Rate of 1

`CC(C)S(=O)(=O)c1ccc2nccc(Nc3ccc4scnc4c3)c2c1` has a reported Growth Rate of 0

`CC(C)(O)CNc1ncc(-c2ccnc(Nc3ccnc(Cl)c3)n2)c(CC2CC2)n1` has a reported Growth Rate of 0

`CCN(CC)CCCCNc1ncc2cc(-c3cc(OC)cc(OC)c3)c(NC(=O)NC(C)(C)C)nc2n1` has a reported Growth Rate of 0

###

Tested on: Fibroblast
assay name: Multiplex assay against human fibroblast
Format: toxicity, cell-based
setup conditions: 48 h, 1 µM, compound concentration 1 uM, replicate 1
reported property: Total Cell Count
Number, no unit, nothing else.

Fill in: Fibroblast Total Cell Count for `Cn1cc(-c2[nH]c3cc(NC(=O)[C@H](N)C4CCCCC4)cc4c3c2C=NNC4=O)cn1` = 134

Fill in: Fibroblast Total Cell Count for `Cc1[nH]c(/C=C2\C(=O)Nc3ccc(S(=O)(=O)N(C)c4cccc(Cl)c4)cc32)c(C)c1C(=O)N1CCN(C)CC1` = 68

Fill in: Fibroblast Total Cell Count for CN1CCCC(n2nc(Cc3ccc(Cl)cc3)c3ccccc3c2=O)CC1.Cl (centres undefined) [AZELASTINE HYDROCHLORIDE] = 95

Fill in: Fibroblast Total Cell Count for `CN(C)C(=O)/C(C#N)=C/c1ccc(-c2nc3cnc4[nH]ccc4c3n2C2CCCCC2)o1` = 143

###

System: Fibroblast
assay name: Incucyte cell viability with human fibroblast; also: filed as whole numbers so only -1 and 0 and 1 occur
Assay type: toxicity, cell-based
setup conditions: 24 h, 10 µM, compound concentration 10 uM, replicate number 2, timepoint 24 hours
What Growth Rate was measured for each of the following?

`CN1C(=O)c2sccc2N(C)c2nc(Nc3ccc(S(N)(=O)=O)cc3)ncc21` has a reported Growth Rate of 1

`CN(C)S(=O)(=O)c1ccc(NC(=S)N2CCC(C(O)(c3ccccc3)c3ccccc3)CC2)cc1` has a reported Growth Rate of 1

`CN(C)C(=O)c1ccc(-c2cc(C(=O)N[C@@H]3CCc4ccccc43)no2)cc1O` has a reported Growth Rate of 1

`CSc1ccc(C(=O)N[C@@H]2CCCC[C@@H]2NC(=O)CNC(=O)c2cc(C(F)(F)F)ccc2NC(=O)NC(C)C)cc1` has a reported Growth Rate of 1

C[C@H]1CC(=O)Nc2cc(C(=O)NCCC3CC3)ccc2N1C(=O)N1CC2CC2C1 (some centres not stated) has a reported Growth Rate of 0

`CCC(=O)N1CCOc2c(cc(-c3ccc(OC)c(OC)c3)cc2OC[C@H]2CCCN(C)C2)C1` has a reported Growth Rate of 0

O=c1nc(-c2ccccn2)sc2ccccc12 [BTZO-1] has a reported Growth Rate of 1

Cc1cc(Nc2nccc(C)n2)cc(-c2cnc([C@@]3(O)CC[C@H](C(=O)O)C(C)(C)C3)s2)c1 [MRL-SYKi] has a reported Growth Rate of 0

COc1ccc2cc(OCC3(C(=O)O)CN(C(=O)c4ccc(F)cc4)C3)ccc2c1 [PF-04418948] has a reported Growth Rate of 1

CN(c1ccnc(CNc2nc(Nc3ccc4c(c3)CC(=O)N4)ncc2C(F)(F)F)n1)S(C)(=O)=O [PF-00911705] has a reported Growth Rate of 0

C[C@H](Cc1cc2c(c(C(N)=O)c1)N(CCCO)CC2)NCCOc1ccccc1OCC(F)(F)F [SILODOSIN] has a reported Growth Rate of 0

C[S+]([O-])c1ccc(-c2nc(-c3ccncc3)c(-c3ccc(F)cc3)[nH]2)cc1 (configuration not stated) [SB-203580] has a reported Growth Rate of 1

`CCCCN1CCC(COC(=O)c2cc(Cl)c(N)c3c2OCCO3)CC1.Cl` has a reported Growth Rate of 0

`COc1cc(-c2cn([C@H]3CCc4c(F)cccc4N(CC(F)(F)F)C3=O)nn2)ccc1-n1cnc(C)c1` has a reported Growth Rate of 0

COc1ccc(C2(O)OC(=O)C(c3ccc4c(c3)OCO4)=C2Cc2cc(OC)c(OC)c(OC)c2)cc1 (configuration not stated) [PD-156707] has a reported Growth Rate of 1

O=C(O)[C@@H]1[C@@H](Cn2nnc3ccccc3c2=O)CC[C@H]1C(=O)c1ccc(OCCC2CCOCC2)cc1 [BAY-694] has a reported Growth Rate of 1

`Cc1nc(C(=O)N2CCC[C@H]2Cc2nnc(-c3ccccc3)o2)c(-c2ccccc2F)s1` has a reported Growth Rate of 1
